Source listed as patent US9309242B2.

Answer each item with its documented IC50.
target or system: FGFR3 (h) (Homo sapiens)
Sequence (P22607 23-806): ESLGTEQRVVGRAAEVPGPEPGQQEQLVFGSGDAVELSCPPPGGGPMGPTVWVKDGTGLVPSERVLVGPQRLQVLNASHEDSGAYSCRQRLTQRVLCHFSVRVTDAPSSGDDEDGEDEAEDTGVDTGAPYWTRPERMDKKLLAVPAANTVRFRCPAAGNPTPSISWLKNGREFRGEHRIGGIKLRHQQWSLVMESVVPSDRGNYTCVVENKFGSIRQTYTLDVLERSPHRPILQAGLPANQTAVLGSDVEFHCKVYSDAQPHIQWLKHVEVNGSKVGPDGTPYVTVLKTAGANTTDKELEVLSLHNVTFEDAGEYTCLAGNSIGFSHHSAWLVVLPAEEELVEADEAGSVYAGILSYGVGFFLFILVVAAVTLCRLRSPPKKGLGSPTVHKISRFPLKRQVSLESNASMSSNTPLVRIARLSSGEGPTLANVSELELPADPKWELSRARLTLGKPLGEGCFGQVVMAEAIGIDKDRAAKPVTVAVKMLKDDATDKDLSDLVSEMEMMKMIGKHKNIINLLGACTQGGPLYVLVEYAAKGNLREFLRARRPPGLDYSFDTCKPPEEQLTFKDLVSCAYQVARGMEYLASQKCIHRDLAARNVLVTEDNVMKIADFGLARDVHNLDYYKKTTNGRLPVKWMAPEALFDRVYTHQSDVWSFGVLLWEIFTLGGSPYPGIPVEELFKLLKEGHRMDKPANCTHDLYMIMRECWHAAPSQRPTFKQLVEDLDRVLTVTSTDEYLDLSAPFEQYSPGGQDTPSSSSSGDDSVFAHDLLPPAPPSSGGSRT
protocol details: FGFR3 (enzymatic assay), TR-FRET
Type: biochemical
condition: read-out: FGFR 3 pIC50 (converted)
Your answer should be a plain number; it is taken to be in nM.

// COc1cc(OC)cc(N(Cc2ncc[nH]2)c2ccc3ncc(-c4ccccc4)nc3n2)c1 : IC50 value = 1.15

// recorded IC50 for COc1cc(/N=c2\ccc3ncc(-c4cnn(C)c4)nc3n2CCCN2CCCC2=O)cc(OC)c1 : 0.724

For COc1cc(OC)c(F)c(N(Cc2c[nH]c(C)n2)c2ccc3ncc(-c4cnn(C)c4)nc3n2)c1 the molecule record lists IC50 as 1.58

// sample COc1cc(OC)cc(N(Cc2ncn(CCO)n2)c2ccc3ncc(-c4cnn(C)c4)nc3n2)c1 , its IC50 was 14.5

Summary for this molecule, COc1cc(/N=c2\ccc3ncc(-c4cnn(C)c4)nc3n2Cc2cc(C)no2)c(F)c(OC)c1 : IC50 is 1.35

Just so you know, measured IC50 for COc1cc(OC)cc(N(CC2CCCOC2)c2ccc3ncc(-c4cnn(C)c4)nc3n2)c1 (stereo not shown) came out at 2.63

So, COc1cc(/N=c2\ccc3ncc(-c4cnn(C)c4)nc3n2CCN2CCCC2=O)cc(OC)c1 ? Its IC50 was 3.55

Entry COc1cc(OC)c(F)c(N(CC(=O)NCCO)c2ccc3ncc(-c4cnn(C)c4)nc3n2)c1 ; IC50 = 7.94

Kindly note the recorded IC50 for COc1cc(OC)c(F)c(N(CC(C)(C)O)c2ccc3ncc(-c4cnn(C)c4)nc3n2)c1 , which is 3.31

IC50 recorded for this molecule, COc1cc(OC)c(F)c(/N=c2\ccc3ncc(-c4cnn(C)c4)nc3n2CC2CCOC2)c1F (stereo not shown) , is 0.676

The molecule listed as COc1cc(OC)c(F)c(N(CCN2CCOCC2)c2ccc3ncc(-c4cnn(C)c4)nc3n2)c1 shows IC50 equal to 2.63

IC50 reading for COc1cc(OC)c(F)c(N(CC(C)(C)O)c2ccc3ncc(-c4cnn(C)c4)nc3n2)c1F : 2.95

Reported IC50 ( CCn1cc(-c2cnc3ccc(N(Cc4ncc[nH]4)c4cc(OC)cc(OC)c4F)nc3n2)cn1 ) = 1.23

Lab note: COc1cc(OC)cc(N(CCN2CCOCC2)c2ccc3ncc(-c4cnn(C)c4)nc3n2)c1 gave IC50 of 4.9

Form field IC50, entry COc1cc(/N=c2\ccc3ncc(-c4cnn(C)c4)nc3n2Cc2cn[nH]c2)c(F)c(OC)c1 : 0.407

Entry COc1cc(/N=c2\ccc3ncc(-c4cnn(C)c4)nc3n2Cc2cc(C)on2)c(F)c(OC)c1 ; IC50 = 1.55

###

target or system: FGFR4 (h) (Homo sapiens, UniProt P22455)
Sequence (P22455 22-802): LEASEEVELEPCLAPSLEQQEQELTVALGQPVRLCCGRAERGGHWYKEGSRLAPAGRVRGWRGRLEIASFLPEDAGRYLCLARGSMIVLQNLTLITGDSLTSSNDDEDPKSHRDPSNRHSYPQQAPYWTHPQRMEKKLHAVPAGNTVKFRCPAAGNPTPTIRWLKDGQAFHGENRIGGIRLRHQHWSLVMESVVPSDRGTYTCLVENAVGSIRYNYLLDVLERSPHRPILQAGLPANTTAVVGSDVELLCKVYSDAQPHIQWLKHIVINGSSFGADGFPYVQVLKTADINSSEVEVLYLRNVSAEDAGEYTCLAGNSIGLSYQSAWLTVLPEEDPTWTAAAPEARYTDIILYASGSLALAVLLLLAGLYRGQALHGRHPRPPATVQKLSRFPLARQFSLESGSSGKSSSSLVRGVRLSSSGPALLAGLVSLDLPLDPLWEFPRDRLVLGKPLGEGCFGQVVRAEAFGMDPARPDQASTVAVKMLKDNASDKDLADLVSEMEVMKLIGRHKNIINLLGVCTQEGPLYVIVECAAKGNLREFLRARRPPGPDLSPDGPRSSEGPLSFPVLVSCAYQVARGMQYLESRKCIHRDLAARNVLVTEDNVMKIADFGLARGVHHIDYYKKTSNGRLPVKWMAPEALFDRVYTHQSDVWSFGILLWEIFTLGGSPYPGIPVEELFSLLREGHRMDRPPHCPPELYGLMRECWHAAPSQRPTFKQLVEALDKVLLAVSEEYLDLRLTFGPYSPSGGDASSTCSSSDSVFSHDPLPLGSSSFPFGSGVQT
protocol details: FGFR4 (enzymatic assay), TR-FRET
Type: biochemical
condition: FGFR 4 pIC50, enzymatic assay
pIC50: −log10 of the molar value.
Use 8 as the dividing line for pIC50, with the line itself on the true (1) side and lower values as false (0).

Query: Reported pIC50 at or above 8? COc1cc(OC)c(F)c(N(Cc2ncc[nH]2)c2ccc3ncc(-c4cccnc4)nc3n2)c1 [Compound 190a]
Result: true (1)

Query: // inclusive: pIC50 at least 8? input: COc1cc(OC)c(F)c(N(CCS(C)(=O)=O)c2ccc3ncc(-c4cnn(CCS(C)(=O)=O)c4)nc3n2)c1 [Compound 266]
Result: true (1)

Query: Can COc1cc(OC)cc(N(Cc2nnco2)c2ccc3ncc(-c4cnn(C)c4)nc3n2)c1 [Compound 217] be said to have pIC50 at or above 8?
Result: false (0)

Query: Is it the case that COc1cc(/N=c2\ccc3ncc(-c4cnn(C)c4)nc3n2CC2CCC(=O)N2CCO)c(F)c(OC)c1 (centres unmarked) [Compound 247] has pIC50 reaching or exceeding 8?
Result: true (1)

Query: Reported pIC50 at or above 8? CNCCn1/c(=N/c2c(F)c(OC)cc(OC)c2F)ccc2ncc(-c3cn[nH]c3)nc21 [Compound 121]
Result: true (1)

###

target or system: Ba/F3-FGFR4-transfected cells (Homo sapiens, UniProt P22455)
Sequence (P22455 whole entry, change not shown): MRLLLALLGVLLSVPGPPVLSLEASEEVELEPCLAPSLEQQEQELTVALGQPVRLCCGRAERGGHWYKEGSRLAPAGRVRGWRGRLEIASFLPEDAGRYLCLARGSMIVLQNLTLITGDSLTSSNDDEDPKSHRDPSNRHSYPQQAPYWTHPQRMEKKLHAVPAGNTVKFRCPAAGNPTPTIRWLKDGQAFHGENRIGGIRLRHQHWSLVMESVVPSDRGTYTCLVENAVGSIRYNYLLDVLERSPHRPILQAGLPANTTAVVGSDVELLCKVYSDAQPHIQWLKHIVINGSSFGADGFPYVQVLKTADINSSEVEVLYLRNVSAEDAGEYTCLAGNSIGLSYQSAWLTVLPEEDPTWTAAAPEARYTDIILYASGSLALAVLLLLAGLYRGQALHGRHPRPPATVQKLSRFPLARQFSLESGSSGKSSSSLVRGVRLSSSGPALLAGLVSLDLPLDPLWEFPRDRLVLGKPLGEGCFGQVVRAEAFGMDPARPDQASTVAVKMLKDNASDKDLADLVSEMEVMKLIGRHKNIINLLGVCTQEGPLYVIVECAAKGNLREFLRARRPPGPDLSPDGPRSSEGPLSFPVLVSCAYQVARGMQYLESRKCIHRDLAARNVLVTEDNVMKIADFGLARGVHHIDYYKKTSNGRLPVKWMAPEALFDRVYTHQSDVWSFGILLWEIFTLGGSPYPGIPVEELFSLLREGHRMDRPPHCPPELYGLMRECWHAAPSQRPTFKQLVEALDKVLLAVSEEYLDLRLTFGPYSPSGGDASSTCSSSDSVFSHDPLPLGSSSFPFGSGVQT
protocol details: Ba/F3-FGFR4 cellular proliferation assay, Alamar Blue
Assay type: cell-based
Structures can show the parent of a compound that is named as a salt.
outcome measure: BAF3-FGFR4 pIC50
Lab note: jot down the number only; don't add units.

Known value: Ba/F3-FGFR4-transfected cells (Homo sapiens, UniProt P22455) BAF3-FGFR4 pIC50 of the compound COc1cc(OC)cc(N(Cc2ncc[nH]2)c2ccc3ncc(-c4cnn(C)c4)nc3n2)c1 [24-fumarate salt] equals 7.85

For COCC(O)CN(c1ccc2ncc(-c3cnn(C)c3)nc2n1)c1cc(OC)cc(OC)c1F (single isomer, unassigned) [Compound 59] on Ba/F3-FGFR4-transfected cells (Homo sapiens, UniProt P22455), measured BAF3-FGFR4 pIC50 was 7.19

Record for COc1cc(OC)c(F)c(N(Cc2cn(S(=O)(=O)N(C)C)cn2)c2ccc3ncc(-c4cnn(C)c4)nc3n2)c1 [Compound 36] under target or system Ba/F3-FGFR4-transfected cells (Homo sapiens, UniProt P22455): BAF3-FGFR4 pIC50 reported as 7.30

Record for COc1cc(OC)cc(N(Cc2ncc[nH]2)c2ccc3ncc(-c4cn[nH]c4)nc3n2)c1 [Compound 141] under target or system Ba/F3-FGFR4-transfected cells (Homo sapiens, UniProt P22455): BAF3-FGFR4 pIC50 reported as 7.40

The compound COc1cc(/N=c2\ccc3ncc(-c4cnn(C)c4)nc3n2CCN)c(F)c(OC)c1 [Compound 167] , when measured on Ba/F3-FGFR4-transfected cells (Homo sapiens, UniProt P22455), yielded BAF3-FGFR4 pIC50 of 6.31

Measured BAF3-FGFR4 pIC50 (Ba/F3-FGFR4-transfected cells (Homo sapiens, UniProt P22455)), entry COc1cc(OC)c(F)c(N(Cc2ncc[nH]2)c2ccc3ncc(-c4cccnc4)nc3n2)c1 [Compound 190a] : 7.11

BAF3-FGFR4 pIC50 for Ba/F3-FGFR4-transfected cells (Homo sapiens, UniProt P22455) with input COc1cc(OC)c(F)c(N(Cc2ncc[nH]2)c2ccc3ncc(N4C[C@@H](C)N[C@@H](C)C4)nc3n2)c1 [Compound 259] equals 6.19

Note to self: BAF3-FGFR4 pIC50 of COc1cc(OC)c(F)c(N(Cc2ncccn2)c2ccc3ncc(-c4cnn(C)c4)nc3n2)c1 [Compound 9] with Ba/F3-FGFR4-transfected cells (Homo sapiens, UniProt P22455) was 6.79

Sample COc1cc(OC)cc(N(CC(C)(C)O)c2ccc3ncc(-c4cnn(C)c4)nc3n2)c1 [Compound 276] , system: Ba/F3-FGFR4-transfected cells (Homo sapiens, UniProt P22455). Its BAF3-FGFR4 pIC50 is 5.82

Response field BAF3-FGFR4 pIC50 (Ba/F3-FGFR4-transfected cells (Homo sapiens, UniProt P22455)) for item COc1cc(OC)c(F)c(N(Cc2ncc[nH]2)c2ccc3ncc(-c4cnn(C)c4)nc3n2)c1 [23-phosphate salt] : 8.15

Record for COc1cc(OC)c(F)c(N(CC(=O)O)c2ccc3ncc(-c4cnn(C)c4)nc3n2)c1 [Compound 231] under target or system Ba/F3-FGFR4-transfected cells (Homo sapiens, UniProt P22455): BAF3-FGFR4 pIC50 reported as 5.02

Measured on Ba/F3-FGFR4-transfected cells (Homo sapiens, UniProt P22455), COc1cc(OC)c(F)c(N(Cc2cc(C)no2)c2ccc3ncc(-c4cnn(C)c4)nc3n2)c1 [Compound 185] has a documented BAF3-FGFR4 pIC50 of 7.39

Record COc1cc(OC)c(F)c(N(CC(=O)N2CCNCC2)c2ccc3ncc(-c4cnn(C)c4)nc3n2)c1 [Compound 262] ; system Ba/F3-FGFR4-transfected cells (Homo sapiens, UniProt P22455); BAF3-FGFR4 pIC50 = 5.63

###

target or system: KDR (h) (Homo sapiens, UniProt P35968)
Sequence (P35968 20-1356): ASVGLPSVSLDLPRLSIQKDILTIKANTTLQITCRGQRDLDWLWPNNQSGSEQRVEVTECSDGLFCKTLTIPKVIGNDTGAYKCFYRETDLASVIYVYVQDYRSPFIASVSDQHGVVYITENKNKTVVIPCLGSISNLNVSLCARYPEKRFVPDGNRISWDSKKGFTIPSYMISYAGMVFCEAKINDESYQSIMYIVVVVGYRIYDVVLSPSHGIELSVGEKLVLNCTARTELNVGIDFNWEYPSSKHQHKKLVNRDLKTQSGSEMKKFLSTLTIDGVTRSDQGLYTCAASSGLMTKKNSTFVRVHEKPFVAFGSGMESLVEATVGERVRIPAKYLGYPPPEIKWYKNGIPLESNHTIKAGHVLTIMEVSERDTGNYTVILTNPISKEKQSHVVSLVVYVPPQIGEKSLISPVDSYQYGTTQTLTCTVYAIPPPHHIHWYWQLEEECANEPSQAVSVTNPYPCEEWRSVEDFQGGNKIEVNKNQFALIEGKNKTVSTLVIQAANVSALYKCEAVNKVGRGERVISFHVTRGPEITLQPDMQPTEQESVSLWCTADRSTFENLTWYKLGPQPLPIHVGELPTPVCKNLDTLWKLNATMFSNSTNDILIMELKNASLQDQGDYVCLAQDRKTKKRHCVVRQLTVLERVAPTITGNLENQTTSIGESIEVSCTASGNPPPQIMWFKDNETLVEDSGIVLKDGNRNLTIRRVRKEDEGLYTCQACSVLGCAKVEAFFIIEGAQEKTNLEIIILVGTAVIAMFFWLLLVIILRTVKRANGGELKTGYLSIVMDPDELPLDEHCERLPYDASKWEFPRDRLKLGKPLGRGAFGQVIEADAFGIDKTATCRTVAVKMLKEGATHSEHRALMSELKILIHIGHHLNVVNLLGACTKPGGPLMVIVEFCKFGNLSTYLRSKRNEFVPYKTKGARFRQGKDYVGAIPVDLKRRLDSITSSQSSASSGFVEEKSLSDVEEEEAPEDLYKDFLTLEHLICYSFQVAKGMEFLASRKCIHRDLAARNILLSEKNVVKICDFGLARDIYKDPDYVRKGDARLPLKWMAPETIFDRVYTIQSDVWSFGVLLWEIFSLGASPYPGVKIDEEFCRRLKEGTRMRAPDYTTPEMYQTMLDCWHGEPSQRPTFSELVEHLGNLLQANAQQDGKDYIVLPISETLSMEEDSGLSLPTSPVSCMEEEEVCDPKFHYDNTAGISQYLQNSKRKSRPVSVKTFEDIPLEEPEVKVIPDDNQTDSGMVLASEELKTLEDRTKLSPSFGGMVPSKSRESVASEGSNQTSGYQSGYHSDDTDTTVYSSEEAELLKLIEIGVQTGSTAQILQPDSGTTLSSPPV
protocol details: KDR (VEGFR2) (enzymatic assay), TR-FRET
Assay type: biochemical
condition: read-out: VEGFR 2 (KDR) pIC50 (converted)
For each record, write down the corresponding IC50.
Just the number in nM, nothing appended.

Input COc1cc(OC)c(F)c(N(c2ccc3ncc(-c4cnn(C)c4)nc3n2)C(C)c2ncc[nH]2)c1 (stereo not shown) . Output IC50: 17.4

Consider COc1cc(OC)cc(N(Cc2ncc[nH]2)c2ccc3ncc(-c4cn[nH]c4)nc3n2)c1 . Its measured IC50 is 12

Consider COc1cc(OC)c(F)c(N(CCN(C2COC2)C2COC2)c2ccc3ncc(-c4cnn(C)c4)nc3n2)c1F (single isomer, unassigned) . Its measured IC50 is 8.51

So for COc1cc(OC)c(F)c(N(CCN(C2COC2)C2COC2)c2ccc3ncc(-c4cnn(C)c4)nc3n2)c1 , the logged IC50 turned out to be 40.7

# IC50 of COc1cc(/N=c2\ccc3ncc(-c4cnn(C)c4)nc3n2CC2CCCOC2)cc(OC)c1 (stereo not shown) = 6.31

COc1cc(OC)c(F)c(N(Cc2nc(CO)c[nH]2)c2ccc3ncc(-c4cnn(C)c4)nc3n2)c1 has a reported IC50 of 22.4

Briefly, IC50 measured for COc1cc(OC)c(F)c(N(Cc2nc(C)c[nH]2)c2ccc3ncc(-c4cnn(C)c4)nc3n2)c1 : 8.71
